# reported Binding affinity (RU); entries follow
# system: acetylcholine receptor
# assay-explanation: SPR, AchR on CM5 chip, peptide 10 µM
property-label: Binding affinity (RU)

binder: RKMDIR [6mer-1-1169]
property-label: Binding affinity (RU)
reading: 32 RU

binder: KRYTVR [6mer-1-1156]
property-label: Binding affinity (RU)
reading: 37 RU

binder: KRDEDK [6mer-1-1195]
property-label: Binding affinity (RU)
reading: 25 RU

binder: RKHNKK [6mer-1-1153]
property-label: Binding affinity (RU)
reading: 23 RU

binder: RRHTMR [6mer-1-1177]
property-label: Binding affinity (RU)
reading: 21 RU

binder: KKTHAK [6mer-1-1194]
property-label: Binding affinity (RU)
reading: 22 RU

binder: KRHMMK [6mer-1-1167]
property-label: Binding affinity (RU)
reading: 42 RU

binder: KRATMK [6mer-1-1140]
property-label: Binding affinity (RU)
reading: 43 RU

binder: RKTWEK [6mer-1-1175]
property-label: Binding affinity (RU)
reading: 23 RU

binder: KKIPMK [6mer-1-1173]
property-label: Binding affinity (RU)
reading: 26 RU

binder: KRPPPK [6mer-1-1180]
property-label: Binding affinity (RU)
reading: 34 RU

binder: RRATWR [6mer-1-1165]
property-label: Binding affinity (RU)
reading: 29 RU

binder: KRPMAK [6mer-1-1197]
property-label: Binding affinity (RU)
reading: 21 RU

binder: RKPMMK [6mer-1-1158]
property-label: Binding affinity (RU)
reading: 33 RU

binder: KKCMGR [6mer-1-1144]
property-label: Binding affinity (RU)
reading: 25 RU

binder: KKETPR [6mer-1-1142]
property-label: Binding affinity (RU)
reading: 24 RU

binder: RRMDAK [6mer-1-1181]
property-label: Binding affinity (RU)
reading: 21 RU

Sourced from patent US20250011363A1
